These entries and their values trace back to patent US11214538B2.

Overview of recorded pEC50 for various compounds
Biological target: hFXR (Homo sapiens, UniProt Q96RI1)
Sequence (Q96RI1 whole entry): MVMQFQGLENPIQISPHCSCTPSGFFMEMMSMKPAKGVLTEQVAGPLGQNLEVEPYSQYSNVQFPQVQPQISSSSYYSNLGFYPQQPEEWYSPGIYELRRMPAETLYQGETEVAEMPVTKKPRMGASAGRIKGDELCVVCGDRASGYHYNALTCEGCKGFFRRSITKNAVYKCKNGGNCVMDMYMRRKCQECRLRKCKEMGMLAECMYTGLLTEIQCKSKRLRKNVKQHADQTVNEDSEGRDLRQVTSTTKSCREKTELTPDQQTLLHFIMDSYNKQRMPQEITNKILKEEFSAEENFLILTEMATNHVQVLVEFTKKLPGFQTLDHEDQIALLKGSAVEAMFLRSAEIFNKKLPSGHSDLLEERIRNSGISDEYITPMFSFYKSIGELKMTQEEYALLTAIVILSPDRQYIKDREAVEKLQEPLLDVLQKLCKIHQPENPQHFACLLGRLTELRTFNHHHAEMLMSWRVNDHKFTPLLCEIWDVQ
Sequence (P19793 whole entry partner): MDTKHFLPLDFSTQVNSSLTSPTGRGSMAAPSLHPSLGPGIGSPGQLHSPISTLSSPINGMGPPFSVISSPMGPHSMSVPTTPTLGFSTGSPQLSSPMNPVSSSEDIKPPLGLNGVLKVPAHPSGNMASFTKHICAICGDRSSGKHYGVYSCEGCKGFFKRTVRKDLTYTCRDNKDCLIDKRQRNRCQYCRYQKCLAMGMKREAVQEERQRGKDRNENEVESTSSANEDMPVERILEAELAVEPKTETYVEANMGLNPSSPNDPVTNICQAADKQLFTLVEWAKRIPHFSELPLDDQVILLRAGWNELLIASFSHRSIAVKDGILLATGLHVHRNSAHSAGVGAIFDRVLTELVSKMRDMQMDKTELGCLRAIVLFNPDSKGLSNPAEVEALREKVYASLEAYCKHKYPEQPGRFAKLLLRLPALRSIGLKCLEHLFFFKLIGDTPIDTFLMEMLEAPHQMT
Experiment: In Vitro FXR Assay (TK), luciferase reporter in transfected CV-1 cells
Settings: CV-1 cells transfected with hFXR, hRXR, TK-ECRE-luc; 18 hrs incubation; luminescence; compounds with a maximum efficacy of <25% of the Fexaramine control classified as '+'
Method: Example B-2: In Vitro FXR Assay (TK) CV-1 cells were seeded at a density of 2,000,000 cells in a T175 flask with DMEM+10% charcoal double-stripped FBS and incubated at 37° C. in 5% CO2 for 18 h (O/N). After 18 h of incubation, the medium in the T175 flask was changed with fresh DMEM+10% charcoal super-stripped serum. […] Compounds were serially diluted in DMSO and added to transfected CV-1 cells. […] The next day cells were lysed and examined for luminescence.
pEC50: −log10 of the molar value.

CN(C)c1ccc(-c2ccc(CN(C(=O)C3CCCCC3)c3cccc(/C=C/c4ncco4)c3)cc2)cc1 ... ≥ 5.52
COC(=O)CNc1cccc(N(Cc2ccc(-c3ccc(N(C)C)cc3)cc2)C(=O)C2CCCCC2)c1 ... ≥ 5.52
COc1ccc(-c2cccc(N(Cc3ccc(-c4ccc(N(C)C)cc4)cc3)C(=O)C3CCCCC3)c2)s1 ... ≥ 5.52
CCC/C=C/c1cccc(N(Cc2ccc(-c3ccc(N(C)C)cc3)cc2)C(=O)C2CCCCC2)c1 ... 5.00 to 5.52

Attention now turns to another entry.
// pEC50 lookup, key: COCC1CCN(c2cccc(N(C[C@H]3CC[C@H](c4ccc(OC)c(C)c4)CC3)C(=O)[C@H]3CC[C@H](O)CC3)c2)C1 (some centres unmarked)
5.00 to 5.52
